- EXPERIMENT: Caking test (Experiment 1-4)
- Assay type: physicochemical
- Design: key: “Caked”, (+): Sample clearly keeps the hemispherical shape of the bottom of the tube even when placed on the plate; “Slightly caked”, (±): Sample slightly but distinguishably shows the hemispherical shape of the bottom of the tube; “Not caked” (−): Sample does not keep the hemispherical shape of the bottom of the tube
- MEASUREMENT_CONTEXT: 1 g in 14-ml polypropylene tube, 50° C., 24 hours, macroscopic observation
- Procedure: The following experiment was performed to investigate the caking of respective Test samples 1 to 4: One gram aliquots of each of Test samples 1 to 4, prepared in Experiment 1-1, were separately filled into “FALCON TUBE 2059”, a product name of a 14-ml polypropylene cylindrical tube (1.7 cm in diameter, 10 cm in height) having a hemispherical bottom shape and a cap, commercialized by Becton, Dickinson and Company, New Jersey, USA. […]

MOLECULE | Caking
O=C1O[C@H]([C@@H](O)CO)C(O)=C1O[C@H]1O[C@H](CO)[C@@H](O)[C@H](O)[C@H]1O [Example 3, 2-O-α-D-glucosyl-L-ascorbic acid] | −
O=C1O[C@H]([C@@H](O)CO)C(O)=C1O[C@H]1O[C@H](CO)[C@@H](O)[C@H](O)[C@H]1O [Test sample 11, 2-O-α-D-glucosyl-L-ascorbic acid] | ±
O=C1O[C@H]([C@@H](O)CO)C(O)=C1O[C@H]1O[C@H](CO)[C@@H](O)[C@H](O)[C@H]1O [Test sample 19, 2-O-α-D-glucosyl-L-ascorbic acid] | −

====

- EXPERIMENT: Storage stability test (Experiment 3-2)
- Type: physicochemical
- Parameters: key: “Caked” (+), clump(s) is/are detected in a test sample and the flowability of the test sample has lowered in comparison with that at the initiation of the test; “Not caked” (−), no clump is detected in a test sample and the flowability of the test sample has not been changed in comparison with that at the initiation of the test
- MEASUREMENT_CONTEXT: 10 kg in open polyethylene-double-bag in uncapped steel can, 45 days; flowability and caked state

COMPOUND | Storage stability
O=C1O[C@H]([C@@H](O)CO)C(O)=C1O[C@H]1O[C@H](CO)[C@@H](O)[C@H](O)[C@H]1O [Test sample 11, 2-O-α-D-glucosyl-L-ascorbic acid] | +
O=C1O[C@H]([C@@H](O)CO)C(O)=C1O[C@H]1O[C@H](CO)[C@@H](O)[C@H](O)[C@H]1O [Example 3, 2-O-α-D-glucosyl-L-ascorbic acid] | −
O=C1O[C@H]([C@@H](O)CO)C(O)=C1O[C@H]1O[C@H](CO)[C@@H](O)[C@H](O)[C@H]1O [Example 4, 2-O-α-D-glucosyl-L-ascorbic acid] | −
O=C1O[C@H]([C@@H](O)CO)C(O)=C1O[C@H]1O[C@H](CO)[C@@H](O)[C@H](O)[C@H]1O [Test sample 1, 2-O-α-D-glucosyl-L-ascorbic acid] | −
O=C1O[C@H]([C@@H](O)CO)C(O)=C1O[C@H]1O[C@H](CO)[C@@H](O)[C@H](O)[C@H]1O [Test sample 20, 2-O-α-D-glucosyl-L-ascorbic acid] | +
O=C1O[C@H]([C@@H](O)CO)C(O)=C1O[C@H]1O[C@H](CO)[C@@H](O)[C@H](O)[C@H]1O [Test sample 22, 2-O-α-D-glucosyl-L-ascorbic acid] | −
O=C1O[C@H]([C@@H](O)CO)C(O)=C1O[C@H]1O[C@H](CO)[C@@H](O)[C@H](O)[C@H]1O [Test sample 21, 2-O-α-D-glucosyl-L-ascorbic acid] | −
O=C1O[C@H]([C@@H](O)CO)C(O)=C1O[C@H]1O[C@H](CO)[C@@H](O)[C@H](O)[C@H]1O [Example 1, 2-O-α-D-glucosyl-L-ascorbic acid] | −
O=C1O[C@H]([C@@H](O)CO)C(O)=C1O[C@H]1O[C@H](CO)[C@@H](O)[C@H](O)[C@H]1O [Test sample 19, 2-O-α-D-glucosyl-L-ascorbic acid] | −
O=C1O[C@H]([C@@H](O)CO)C(O)=C1O[C@H]1O[C@H](CO)[C@@H](O)[C@H](O)[C@H]1O [Example for Reference 1, 2-O-α-D-glucosyl-L-ascorbic acid] | −
O=C1O[C@H]([C@@H](O)CO)C(O)=C1O[C@H]1O[C@H](CO)[C@@H](O)[C@H](O)[C@H]1O [Example 2, 2-O-α-D-glucosyl-L-ascorbic acid] | −
O=C1O[C@H]([C@@H](O)CO)C(O)=C1O[C@H]1O[C@H](CO)[C@@H](O)[C@H](O)[C@H]1O [Test sample 10, 2-O-α-D-glucosyl-L-ascorbic acid] | +

Provenance of the data: patent US9265781B2
